target: serine racemase (SR) in HepG2 cells (Homo sapiens); experiment: CE-LIF measurement of intra-cellular D-Ser production in HepG2 cells
Sequence (Q9GZT4 whole entry): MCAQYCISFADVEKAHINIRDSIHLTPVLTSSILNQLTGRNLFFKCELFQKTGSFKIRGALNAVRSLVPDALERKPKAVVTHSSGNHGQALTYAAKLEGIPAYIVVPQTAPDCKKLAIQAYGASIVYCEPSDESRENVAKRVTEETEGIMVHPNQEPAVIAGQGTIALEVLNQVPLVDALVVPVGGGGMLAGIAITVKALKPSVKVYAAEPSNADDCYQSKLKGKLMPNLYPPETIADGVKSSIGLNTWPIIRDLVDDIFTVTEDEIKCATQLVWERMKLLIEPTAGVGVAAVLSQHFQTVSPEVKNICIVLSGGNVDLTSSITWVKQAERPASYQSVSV
Endpoint Label: EC50 (mM)
Report as a plain number; the unit mM is understood.

Query: Entry under review: N[C@@H](CO)C(=O)O [L-Ser, L-serine] . Reported EC50?
Result: 7.87

---

Biological target: serine racemase (SR) in C6 cells (Rattus norvegicus)
Sequence (Q76EQ0 1-333): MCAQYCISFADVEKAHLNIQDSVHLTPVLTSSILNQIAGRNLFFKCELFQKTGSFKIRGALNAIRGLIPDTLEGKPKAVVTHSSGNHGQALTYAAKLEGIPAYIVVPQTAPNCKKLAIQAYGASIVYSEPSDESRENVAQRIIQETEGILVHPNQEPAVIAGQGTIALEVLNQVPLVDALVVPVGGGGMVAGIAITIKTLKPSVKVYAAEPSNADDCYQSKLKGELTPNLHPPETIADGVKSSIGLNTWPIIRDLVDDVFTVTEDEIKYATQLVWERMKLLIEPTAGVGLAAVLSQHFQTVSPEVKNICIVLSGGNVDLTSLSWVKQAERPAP
Test: CE-LIF measurement of intra-cellular D-Ser production in C6 cells
Endpoint Label: EC50 (mM)
Report as a plain number; the unit mM is understood.

Query: Entry under review: N[C@@H](CO)C(=O)O . Reported EC50?
Result: 9.37
